Experiment: protein stability index of a GFP-peptide fusion (yeast GPS) (PSI 1-4); higher = more stable; sorted into four equal gates, so the index is relative within each strain
Conditions: ubr1∆
# key: entry, value: protein stability index
Write the value as a bare number.

// known answers, use as guide
- Chain Sequence: "GGGRVDKPLLKAGRAFH [RPL2A]"
  Quantitative Result: 2.99
- Chain Sequence: "DSVFSFGPKKENRKKDE [YLR335W/NUP2]"
  Quantitative Result: 3.03
- Chain Sequence: "QFEKSRKVSGPRALQPS [RET1]"
  Quantitative Result: 3.06

Let us examine a further case.
Form: sequence = CSRCGSVTRAGNIISSD [SIN4] ; protein stability index = 3.03

====

Test: protein stability index of a GFP-peptide fusion (yeast GPS) (PSI 1-4); higher = more stable; sorted into four equal gates, so the index is relative within each strain
Conditions: san1∆
# key: entry, value: protein stability index

// known answers, use as guide
- Chain Sequence: "DPLAKVNVLLQSYFSQL [BRR2]"
  protein stability index: 1.58
- Chain Sequence: "LDNMTYSSVAGTVSRVN [RRP4]"
  protein stability index: 2.23
- Chain Sequence: "IQPKITELKKKLDDLEN [SMC1]"
  protein stability index: 3.11

Form: sequence = KKQAQKQTKLRKEKEKK [SMB1] ; protein stability index = 2.46

Form: sequence = ELRRPGVDNLRRMGILK [RPO31] ; protein stability index = 2.85

Form: sequence = KGNVGFVFTNEPLTEIK [RPP0] ; protein stability index = 2.06

Form: sequence = QPVNPKPFLKGLVNHRV [SMX3] ; protein stability index = 3.16

Form: sequence = DKYKLYPVRIPRLDTSK [YJR042W/NUP85] ; protein stability index = 3.12

Form: sequence = RSLLQEAIETCKNFEKT [GAL11] ; protein stability index = 2.59

Form: sequence = EKENRFEIVDREKNSLE [SMC4] ; protein stability index = 3.1

====

Assay: protein stability index of a GFP-peptide fusion (yeast GPS) (PSI 1-4); higher = more stable; sorted into four equal gates, so the index is relative within each strain
Settings: pdr5∆
# key: entry, value: protein stability index
Write the value as a bare number.

// known answers, use as guide
- Chain Sequence: "GLTNWAAAYATGLLIAR [RPL5]"
  protein stability index: 1.26
- Chain Sequence: "AFQLADGIHYILNHIGQ [PRP8]"
  protein stability index: 2.97
- Chain Sequence: "RYISTLTLYLFQDYLTQ [IRR1]"
  protein stability index: 1.76
- Chain Sequence: "VKDLGQGLKLAKKHKLN [SMC3]"
  protein stability index: 2.92

Let us examine a further case.
Form: sequence = APPQRPRFNRDNKVSPA [RPS26B] ; protein stability index = 2.45

====

Assay: protein stability index of a GFP-peptide fusion (yeast GPS) (PSI 1-4); higher = more stable; sorted into four equal gates, so the index is relative within each strain
Conditions: san1∆
Parameter class (string): assigned from measured protein stability index. Ranges: 1 = under 2, 2 = from 2 up to 3, 3 = 3 and over

- Chain Sequence: "ALSYAALILADSEIEIS [RPP1A]"
  Group: 1
- Chain Sequence: "KLPKVYKRSIVRNYKPL [SWI1]"
  Group: 2
- Chain Sequence: "LESYLIVHHPYQSLKQI [SSN8]"
  Group: 2
- Chain Sequence: "LSEFGIKKMLHLVWMKG [YCS4]"
  Group: 2

Data request: # bin lookup: classify SQVFGVARIYASFNDTF [RPS14A] by its protein stability index
Data returned: 2

Data request: # bin lookup: classify PPTTSNLIIFLYKFNGW [YML103C/NUP188] by its protein stability index
Data returned: 2

Data request: # bin lookup: classify TRGGASALIENNLFRII [YJL039C/NUP192] by its protein stability index
Data returned: 2

Data request: # bin lookup: classify SQVDPITLFVLVSVVEA [FAS2] by its protein stability index
Data returned: 2

Data request: # bin lookup: classify QLIAKNVANVSGSTEKA [SIR3] by its protein stability index
Data returned: 3

====

# key: entry, value: protein stability index
Assay: protein stability index of a GFP-peptide fusion (yeast GPS) (PSI 1-4); higher = more stable; sorted into four equal gates, so the index is relative within each strain
Details: doa10∆
Write the value as a bare number.

// known answers, use as guide
- Chain Sequence: "LHYTPIEDLWQFLYEKH [RPC82]"
  protein stability index: 2.24
- Chain Sequence: "EGWPKFQDTLYKKIPLL [QCR10]"
  protein stability index: 2.8
- Chain Sequence: "GNRNSSSVFLPSRKDCM [BRR2]"
  protein stability index: 3.18

Form: sequence = ALTNELNELKAIKDKLE [YIL149C/MLP2] ; protein stability index = 1.35

Form: sequence = KELEPWDLQLQEKESQI [SMC4] ; protein stability index = 3.16

Form: sequence = VWGSETVASSKVGYTLP [RPL4A] ; protein stability index = 3.03

Form: sequence = LKLSQAFGSSATDISGE [YJR042W/NUP85] ; protein stability index = 2.76

Form: sequence = AVFYTPKELGGLGMISA [PRP8] ; protein stability index = 3.43

Form: sequence = KYVHVSEVGNCSGSGMG [FAS2] ; protein stability index = 2.88

Form: sequence = CAMSGLTADARSMIEHA [PUP2] ; protein stability index = 2.3

Form: sequence = RYSMSEQFPFYLHDNAS [IRR1] ; protein stability index = 3.02

Form: sequence = TEDGWIYHGNHDVGELF [PRE2] ; protein stability index = 2.05

Form: sequence = LLNEWSHNVDELLEHIE [RPN5] ; protein stability index = 2.57

Form: sequence = EPYARVSGDLNPIHVSR [FAS1] ; protein stability index = 2.64

Form: sequence = SKKNRPTLQVGDLVYAR [RRP40] ; protein stability index = 2.36

Form: sequence = DSESDSDSETNHKSKDN [SKP1] ; protein stability index = 2.75

Form: sequence = LPDGKNGNLEEEFAYVD [MED6] ; protein stability index = 3.41

Form: sequence = IWDSQKFFIMIVKGNII [POP4] ; protein stability index = 1.37

====

Experiment: protein stability index of a GFP-peptide fusion (yeast GPS) (PSI 1-4); higher = more stable; sorted into four equal gates, so the index is relative within each strain
Settings: san1∆
Outcome label depends on protein stability index relative to 2: at/above gives 1, below gives -1.

Before answering, review these 4 worked examples.
- Chain Sequence: "TPGLTFNAIDLARHLPA [RPC82]"
  Group: 1
- Chain Sequence: "EKNEKEREIKRRKFDPS [UBP6]"
  Group: 1
- Chain Sequence: "MTPVIEKIAAGYMQKPV [PRP28]"
  Group: -1
- Chain Sequence: "YYGCLENDHERGFFHLN [CSN12]"
  Group: 1

Data request: Decide: protein stability index of GADVTNTTQDNGGDKEL [YCS4] >= 2?
Data returned: 1

Data request: Decide: protein stability index of KSIRKDTVEEKKEEKLN [SIR4] >= 2?
Data returned: 1

Data request: Decide: protein stability index of KMLMNLHKEQWQSGLKM [RPN11] >= 2?
Data returned: 1

Data request: Decide: protein stability index of DVETVKREIQEALSEKP [RPC53] >= 2?
Data returned: 1

Data request: Decide: protein stability index of WQYIVIDEAHRIKNEQS [ISW2] >= 2?
Data returned: -1

====

Assay: protein stability index of a GFP-peptide fusion (yeast GPS) (PSI 1-4); higher = more stable; sorted into four equal gates, so the index is relative within each strain
Settings: san1∆
# key: entry, value: protein stability index
Write the value as a bare number.

- Chain Sequence: "AEKKVVRLTSRQRGRIA [RPL17A]"
  protein stability index: 1.45
- Chain Sequence: "NIAKDLKWKKGIRGKLV [SMC1]"
  protein stability index: 2.23
- Chain Sequence: "LSHENNVMLEKIKDNKE [RPT5]"
  protein stability index: 2.46
- Chain Sequence: "KSAEGNNIDQSLILKES [YAR002W/NUP60]"
  protein stability index: 2.61
- Chain Sequence: "DEVNDRSDISDSEGGLF [PCI8]"
  protein stability index: 3.46

Form: sequence = EARLRNLTYSSGLFVDV [RPB2] ; protein stability index = 1.46

Form: sequence = LVREIAQDFKTDLRFQS [HHT1] ; protein stability index = 2.65

Form: sequence = IAAKTHILRISFLDRKR [SIN4] ; protein stability index = 1.84

Form: sequence = EISASESKFILEALRQN [RRP45] ; protein stability index = 2.88

Form: sequence = TCRKHTQHKVTQYKAGK [RPL42A] ; protein stability index = 2.62
